- experimental.protocol: Thermo Scientific Acclaim RSLC 120 C18, 100 × 2.1 mm, 2.2 µm, 30 °C; A: 90% water + 10% methanol + 0.01% formic acid + 5 mM ammonium formate; B: methanol + 0.01% formic acid + 5 mM ammonium formate; gradient (min/%B) 0.1/1 3/39 14/99.9 16/99.9
- experimental.setup: stereoisomer not certain
measured.property: LC retention time (min)
Quick reminder: number only, in min, skip the unit.

Would you please look over these solved cases?
CCNc1nc(NC(C)(C)C)nc(OC)n1 = 9.16
CN1CCN(CCC=C2c3ccccc3Sc3ccc(S(=O)(=O)N(C)C)cc32)CC1 = 8.38
CCC1OC(=O)C(C)C(OC2CC(C)(OC)C(O)C(C)O2)C(C)C(OC2OC(C)CC(N(C)C)C2O)C(C)(O)CC(C)CN(C)C(C)C(O)C1(C)O (stereo unspecified) = 5.98
CCOP(=O)(OCC)OP(=O)(OCC)OCC = 6.49

What value of LC retention time has been reported for the following compound? C=C(C)C1CCC(C)=CC1c1c(O)cc(CCCCC)cc1O (stereo unspecified)
12.7

What value of LC retention time has been reported for the following compound? Cc1ccc(C(=O)c2cn(CCCCCO)c3ccccc23)c2ccccc12
10.6

What value of LC retention time has been reported for the following compound? COCC(C)N(C(=O)CS(=O)(=O)O)c1c(C)csc1C (stereo unspecified)
6.28

What value of LC retention time has been reported for the following compound? Cc1cccc(Nc2ccncc2S(=O)(=O)NC(=O)NC(C)C)c1
6.67

----------
- experimental.protocol: Thermo Scientific Acclaim RSLC 120 C18, 100 × 2.1 mm, 2.2 µm, 30 °C; A: 90% water + 10% methanol + 0.01% formic acid + 5 mM ammonium formate; B: methanol + 0.01% formic acid + 5 mM ammonium formate; gradient (min/%B) 0.1/1 3/39 14/99.9 16/99.9
- experimental.setup: stereoisomer not certain
LC retention time of 7 min or higher: 1.0. Under 7 min: 0.0.

Worked examples, 9 compounds total:
CC(NCCC(c1ccccc1)c1ccccc1)c1ccccc1 (stereo unspecified) = 1.0
CC(Cc1ccccc1)NCCC(c1ccccc1)c1ccccc1 (stereo unspecified) = 1.0
COC(=O)C1C(OC(=O)c2ccccc2)CC2CCC1N2C (stereo unspecified) = 0.0
CC1(C)C(C(=O)c2cn(CC3CCOCC3)c3ccccc23)C1(C)C = 1.0
CC12CCC3C4CCC(=O)C=C4CCC3C1CCC2OC(=O)CCc1ccccc1 (stereo unspecified) = 1.0
COc1ccc2c3c1OC1C(OC4OC(C(=O)O)C(O)C(O)C4O)C=CC4C(C2)NCCC341 (stereo unspecified) = 0.0
CCOC(=O)C(CCc1ccccc1)NC1CCCN2CCCC(C(=O)O)N2C1=O (stereo unspecified) = 1.0
CNS(=O)(=O)Cc1ccc2[nH]cc(CCN(C)C)c2c1 = 0.0
CC(C)(N)Cc1ccccc1 = 0.0

Note: attention shifts to another entry.
Can COc1ccc(Oc2ccc(NC(=O)N(C)C)cc2)cc1 be said to have LC retention time at or above 7 min?
1.0

----------
- experimental.protocol: Thermo Scientific Acclaim RSLC 120 C18, 100 × 2.1 mm, 2.2 µm, 30 °C; A: 90% water + 10% methanol + 0.01% formic acid + 5 mM ammonium formate; B: methanol + 0.01% formic acid + 5 mM ammonium formate; gradient (min/%B) 0.1/1 3/39 14/99.9 16/99.9
- experimental.setup: stereoisomer not certain
Attribute: LC retention time
Quick reminder: number only, in min, skip the unit.

CNCCOC(c1ccccc1)c1ccccc1C (stereo not given) = 7.54
CCCCCCCCc1ccc(OCCOCCO)cc1 = 14.1
CCC1OC(=O)CC(O)C(C)C(OC2OC(C)C(OC3CC(C)(O)C(O)C(C)O3)C(N(C)C)C2O)C(CC=O)CC(C)C(=O)C=CC(C)=CC1COC1OC(C)C(O)C(OC)C1OC (stereo not given) = 7.88

What value of LC retention time has been reported for the following compound? CCSc1ccc2c(c1)N(CCCN1CCN(C)CC1)c1ccccc1S2
10.4

What value of LC retention time has been reported for the following compound? CC=C1CC(C)C(O)(CO)C(=O)OCC2=CC[N+]3([O-])CCC(OC1=O)C23 (stereo not given)
4.33

----------
- experimental.protocol: Thermo Scientific Acclaim RSLC 120 C18, 100 × 2.1 mm, 2.2 µm, 30 °C; A: 90% water + 10% methanol + 0.01% formic acid + 5 mM ammonium formate; B: methanol + 0.01% formic acid + 5 mM ammonium formate; gradient (min/%B) 0.1/1 3/39 14/99.9 16/99.9
- experimental.setup: stereoisomer not certain
Attribute: LC retention time
Quick reminder: number only, in min, skip the unit.

Would you please look over these solved cases?
CN1C2CC(OC(=O)C(CO)c3ccccc3)CC1C1OC12 (configuration not stated) = 3.83
CN(C)C(=N)N=C(N)N = 1.39
CCCN1CC(CSC)CC2c3cccc4[nH]cc(c34)CC21 (configuration not stated) = 6.19

What value of LC retention time has been reported for the following molecule? N#CC(CCN1CCC(C(N)=O)(N2CCCCC2)CC1)(c1ccccc1)c1ccccc1
8.19

What value of LC retention time has been reported for the following molecule? OC(CCN1CCCCC1)(c1ccccc1)C1CCCCC1 (configuration not stated)
7.86

What value of LC retention time has been reported for the following molecule? CN1CCN(CC(=O)N2c3ccccc3C(=O)Nc3cccnc32)CC1
4.11

What value of LC retention time has been reported for the following molecule? COC(=O)c1ccccc1CS(=O)(=O)NC(=O)Nc1nc(OC)cc(OC)n1
8.77

What value of LC retention time has been reported for the following molecule? Cc1nc(NS(=O)(=O)c2ccc(N)cc2)oc1C
4.11

What value of LC retention time has been reported for the following molecule? CNC(=O)C=C(C)OP(=O)(OC)OC
4.36

What value of LC retention time has been reported for the following molecule? CNC(=N[N+](=O)[O-])NCC1CCOC1 (configuration not stated)
3.59

What value of LC retention time has been reported for the following molecule? NC(=O)C1CCCN1 (configuration not stated)
1.31

What value of LC retention time has been reported for the following molecule? O=C(O)C1C2CCC(O2)C1C(=O)O (configuration not stated)
3.2

----------
- experimental.protocol: Thermo Scientific Acclaim RSLC 120 C18, 100 × 2.1 mm, 2.2 µm, 30 °C; A: 90% water + 10% methanol + 0.01% formic acid + 5 mM ammonium formate; B: methanol + 0.01% formic acid + 5 mM ammonium formate; gradient (min/%B) 0.1/1 3/39 14/99.9 16/99.9
- experimental.setup: stereoisomer not certain
measured.property: LC retention time (min)
Quick reminder: number only, in min, skip the unit.

Would you please look over these solved cases?
CNC(=O)Oc1cc(C)c(N(C)C)c(C)c1 = 9.3
CCCN1CCCCC1C(=O)Nc1c(C)cccc1C (configuration not stated) = 5.39
c1ccc(CC2=NCCN2)cc1 = 3.28

What value of LC retention time has been reported for the following molecule? Cc1ccc2n[nH]nc2c1
5.83

What value of LC retention time has been reported for the following molecule? O=P(Oc1ccccc1)(Oc1ccccc1)Oc1ccccc1
11

What value of LC retention time has been reported for the following molecule? CNC(=O)ON=CC(C)(C)S(C)=O (configuration not stated)
3.5

What value of LC retention time has been reported for the following molecule? CCC1OC(=O)CC(O)C(C)C(OC2OC(C)C(O)C(N(C)C)C2O)C(CCN2CC(C)CC(C)C2)CC(C)C(=O)C=CC(C)=CC1COC1OC(C)C(O)C(OC)C1OC (configuration not stated)
6.69

What value of LC retention time has been reported for the following molecule? COP(=S)(OC)Oc1ccc(S(C)=O)c(C)c1 (configuration not stated)
7.28

What value of LC retention time has been reported for the following molecule? CNC(=O)Oc1cccc2ccccc12
7.46

What value of LC retention time has been reported for the following molecule? Nc1ccc(S(=O)(=O)c2ccc(N)cc2)cc1
4.13

What value of LC retention time has been reported for the following molecule? CC(C)(C)C(O)C(Oc1ccc(-c2ccccc2)cc1)n1cncn1 (configuration not stated)
11.3

What value of LC retention time has been reported for the following molecule? CCC(C)CC(C)N (configuration not stated)
4.68

What value of LC retention time has been reported for the following molecule? CCC(C)C1OC2(CCC1C)CC1CC(CC=C(C)C(OC3CC(OC)C(OC4CC(OC)C(O)C(C)O4)C(C)O3)C(C)C=CC=C3COC4C(O)C(C)=CC(C(=O)O1)C34O)O2 (configuration not stated)
14.4

What value of LC retention time has been reported for the following molecule? CNC(C)C(=O)c1ccccc1 (configuration not stated)
3.68

----------
- experimental.protocol: Thermo Scientific Acclaim RSLC 120 C18, 100 × 2.1 mm, 2.2 µm, 30 °C; A: 90% water + 10% methanol + 0.01% formic acid + 5 mM ammonium formate; B: methanol + 0.01% formic acid + 5 mM ammonium formate; gradient (min/%B) 0.1/1 3/39 14/99.9 16/99.9
- experimental.setup: stereoisomer not certain
measured.property: LC retention time (min)
Quick reminder: number only, in min, skip the unit.

Nc1nc(=S)c2[nH]cnc2[nH]1 = 2.53
CC(C)NCC(O)c1ccc(NS(C)(=O)=O)cc1 (centres undefined) = 2.96
CCC(C)(C)C(=O)OC1CC(C)C=C2C=CC(C)C(CCC3CC(O)CC(=O)O3)C21 (centres undefined) = 12.6
COc1cc(CNC(=O)CCCCC=CC(C)C)ccc1O = 9.83
Nc1c2c(nc3ccccc13)CCCC2 = 4.77
COC1=CC(=O)OC(C=Cc2ccccc2)C1 (centres undefined) = 8.32
CC(C)(C)NCC(O)COc1cccc2c1CCCC2=O (centres undefined) = 4.84
CCC(C)OC(=O)N1CCCCC1CCO (centres undefined) = 8.83

What value of LC retention time has been reported for the following compound? CCN(CC)CC(=O)Nc1c(C)cccc1C
4.54

What value of LC retention time has been reported for the following compound? CCOc1c(N)c2c(c(OCC)c1OCC)C(C1c3c(cc4c(c3OC)OCO4)CCN1C)OC2=O (centres undefined)
12

What value of LC retention time has been reported for the following compound? CC(CN1c2ccccc2Sc2ccccc21)N(C)C (centres undefined)
7.53

What value of LC retention time has been reported for the following compound? C=CC(=O)NC(C)(C)CS(=O)(=O)O
2.8

What value of LC retention time has been reported for the following compound? CC=C1CC(C)C(O)(CO)C(=O)OCC2=CCN3CCC(OC1=O)C23 (centres undefined)
4.01

What value of LC retention time has been reported for the following compound? CCN1CCN(C(=O)NC(C(=O)NC2C(=O)N3C(C(=O)O)=C(CSc4nnnn4C)CSC23)c2ccc(O)cc2)C(=O)C1=O (centres undefined)
4.36

What value of LC retention time has been reported for the following compound? CN1CCc2cccc3c2C1Cc1ccc(O)c(O)c1-3 (centres undefined)
4.28

What value of LC retention time has been reported for the following compound? Cc1cccc(Nc2ccccc2C(=O)O)c1C
11.6

What value of LC retention time has been reported for the following compound? CC(C)(C(=O)c1cccnc1)c1cccnc1
6.21

What value of LC retention time has been reported for the following compound? CCCCCn1nc(C(=O)NC(C(N)=O)C(C)C)c2ccccc21 (centres undefined)
10.5
